Sourced from the nanobody polyreactivity screen of Harvey et al. (2022)

Assay: yeast display, Sf9 membrane polyspecificity reagent, FACS + sequencing; frameworks hold sequencing errors

| sequence data | polyreactivity (PSR sort gate) |
| --- | --- |
| QVQLVESGGGLVQAGGSLRLSCAASGSTFVLYAMGWDRQAPGKERELVAAISGGATTTYADSVKGRFTISRDNAKNTVYLQMNSLKPEDTAVYSCAADFSTFVVSGAAMDYWGQGTQVTVSS | low polyreactivity |
| QVQLVESGGGLVQAGGSLRLSCAASGRILYRYAMGWYRQAPGKERELVAAITWRGGTTYYADSVKGRFTISRDNAKNTVYLQMNSLKPEDTAVYYCNADWWRTLESDYWGQGTQVTVSS | low polyreactivity |
| QVQLVESGGGLVQAGGSLRLSCAASGGIFSLYAMGWYRQAPGKERELVAAISRRGTITYYADSVKGRFTISRDNAMNTVYLQMNSLKPEDTAVYYCAALWHAVFYADYDYWGQGTQVTVSS | high polyreactivity |
| QVQLVESGGGLVQAGGSLRLSCAASGFTFTYYAMGWYRQAPGKERELVAVISSAGSTYYADSVKGRFTISRDNAKNTVYLQMNSLKPEDTAVYYCNAVGRYYSSGRYGHWGQGTQVTVSS | high polyreactivity |
| QVHLVESGGGLVQAGGSLRLSCAASGIIFVLYTMGWYRQAPGKERELVATINWGGGNTYYADSLKGRFTISRDNAKNTVYLQMNSLKPEDTAVYYCAAAYTWYGYSQAYYYWGQGTQVTVSS | low polyreactivity |

----------
Test: yeast display, Sf9 membrane polyspecificity reagent, FACS + sequencing; frameworks hold sequencing errors

| sequence data | polyreactivity (PSR sort gate) |
| --- | --- |
| QVQLVESGGGLVQAGGSLRLICAASGRTFYYYAMGWYRQAPGKERELVAAISKDGGRTYYADSVKGRFTISRDNAKHTVYLQMKSLKPEDTAVYYCAARYSSSRGLSSEYWGQGTQVTVSS | high polyreactivity |
| QVQLEESGGGLVQAGGSLRLSCAASGSTFYRYTMGWYRQAPGTERELVAAISRSGGRTYYADSVKGRFTISRDNAKNTVYLQMNSLKPEDTAVYYCAAARRYGRYFGYPMEYWGQGTQVTVSS | high polyreactivity |

----------
Assay: yeast display, Sf9 membrane polyspecificity reagent, FACS + sequencing; frameworks hold sequencing errors
measured metric: polyreactivity (PSR sort gate)

| sequence data | measured metric | assay result |
| --- | --- | --- |
| QVQLVESGGGLVQAGGSLRLSCAASGRIFYGYAMGWYRQAPGKERELVAAIRWYVGNTYYADSVKGRFTISRDNAKNTVYLQMNSLKPEDTAVYYCNARTEYASSRYYYWGQGTQVTVSS | polyreactivity (PSR sort gate) | high polyreactivity |
| QVQLVESGGGLVQAGGSLRLSSAASGSTFGYYAMRWYRQAPGKARELVAAISSAGSTNDADSVKGRFTISRDNAKNTVYLQMNSLKPEDTAVYYCAAKVRVRWHTGLVTRDYDCGQGTQVTVSS | polyreactivity (PSR sort gate) | high polyreactivity |
| QVQLVESGRGIVQAGGSLRISWAASGITLAGYVMGLYRQAPGKESELVADISSSGDSTYYADSVKGRFTMSRDNAKNTVYLQMNSLKPEDTAVYYCAAKCGRTGSFDYWGQGTQVTVSS | polyreactivity (PSR sort gate) | low polyreactivity |
| QVQLVESGGGLVQAGGSLRLSCAASGRIFSNNAMGWYRQAPGKERELVAAISSSGSTYYADSVKGRFTISRDNAKNTVYLQINSLKPEDTAVYYCAVVYGYPYLRGYVFGFNYWGQGTQVTVSS | polyreactivity (PSR sort gate) | low polyreactivity |
| QFQLVESGGGLVQAGGSLRLSCAASGSTFLSNAMGWYRQAPGKERELVAGIDYNDGSTYYADSVKGRFTISRDNAKNTVYLKMNRLKPADTAVYYCAARWVFRRYVICMDFWGQGTEVTVSS | polyreactivity (PSR sort gate) | low polyreactivity |
| QVQLVESGGGLVQAGGSLRLSCAASGFIFRHYAMGWYRQAPGKEREFVAAISYRGDSTYYADSVKGRFTISRDNAKNTVYLQMNSLKPEDTAVYYCAATYVSSAYYSYDYWGQGTQVTVSS | polyreactivity (PSR sort gate) | high polyreactivity |
| QVQLVESGGGLVQAGGSLRLSCAASGFIFNRYAMGWYRQAPGKERELVAAISFSGGSTYYADSVKGRFTISRDNAKNTVYLQMNSLKPEDTAVYYCAASWYRYGYWGQGTQVTVSS | polyreactivity (PSR sort gate) | high polyreactivity |
| QVQLVESGGGLVQAGGSLRLSCAASGIFVDNAMGWYRQAPGKERELVAAISGSGGSTFYADSVKGRFTISRDNAKNTVYLQLNSLKPEDTAVYYCNADVYPHPAFFVGHDYWGHGTQVTVSS | polyreactivity (PSR sort gate) | low polyreactivity |
| QVQLVESGGGLVQAGGSLRLSCAASGISFAIYAMGWYRQAPGKERELVAAISARGGTYYADSVKGRFTISRDNANNTVYSQMNSLKPEDTAVYYCNTDYVSRDDWDYRRYDYWGQGTQVTVSS | polyreactivity (PSR sort gate) | low polyreactivity |
| QVQLVESGGGLVQAGGSLRLSCAASGSTFGGYAMGWYIQAPGKERELVADISRRVGSTYYADSVKGRFTISRDNAKNTVYLQMNSLKPEDTAVYYCNVPRIVIISGPSSPFRYYWGQGTQVTVSS | polyreactivity (PSR sort gate) | high polyreactivity |
| QVQLVESGGGLLQAGGSLRLSCAASGSTCHRNTMGWSRQAPGKESELVAGISLRGVRTYYADSVKSRFTISRDNAKNTVYLQMNSLKPEDTAVYYCAAGGPYTRNFKLGYWGQGTQVTVSS | polyreactivity (PSR sort gate) | high polyreactivity |

----------
Experiment: yeast display, Sf9 membrane polyspecificity reagent, FACS + sequencing; frameworks hold sequencing errors

| sequence data | polyreactivity (PSR sort gate) |
| --- | --- |
| LVQLVESGGGLVQAGGSLRLSCAASGSTFANNAMGWYRQAPGKERELVASITTDGSTNYADSVKGRFTISRDNAKNTVYLQMNSLKPEDTAVYYCAAAYQKSPITPKMDYWGQGTQVTVSS | low polyreactivity |
| QVQLVESGGGLVQAGGSLRLSCAASGSTFYGNMGWYRQAPGKERELVAAITYRGTNTYYADSVKGRFTISRDNAKNTVYLQMNSLKPEDTAVYYCAAEYDVYQGRGRYYGYDYWGQGTQVTVSS | high polyreactivity |
| QVQLVESGGGLVQAGGSLRLTCAASGRIFNYYAMGWYRQAPGKERELVAVITYSAGRTYYADSVKGRFTLSRDNAKNTVYLEMNSLKPEDTAVYYCNADGWVSVSKHYYYWGQGTQVTVSS | low polyreactivity |
| QVQLVESGGGLVQAGGSLRLSCAASGSTFTWYAMGWYRQAPGKERELVAAISRGGSTNYADSVKGRFTISRDNAKNTVYLQMNSLKPEDTAVYYCAAESYWRDDYWGQGTQVTVSS | low polyreactivity |
| QVQLVESGGGLVQAGGSLRLSCAASGFIFWTYAMGWYRQAPGKERELVAAITGGGGTTYYADSVKGRFTISRDTAKNTVYLQMNSLKPEDTAVYYCAAKQYRSRSGGYWGQGTQVTVSS | high polyreactivity |
| QVQLVESGGGLVQAGGSLRLSCAASGIIFRWYTMGWYRQAPGKEREVVAAITGRGGSTYYADSVKGRFTISRDNAKNTVYLQMNSLKPEDSAVYYCAAQYSYPTPYRTYEYDYWGQGTQVTVSS | high polyreactivity |
| QLQLVESGGGLVQAGGSLRLSCAASGSIIGYYAMGWYRQAHGKERELVAAITASGGSTYYADSVKGRFTISRDNAKNTVYLQMNILKPEDTAVYYCAAGTHTDYGRYYYWGQGTQVTVSS | low polyreactivity |
| QVQLVESGGGLVQAGGSLRLSCAASGSILSFNAMGWDRQAPGNERELVAAISRGGSTNYADSVKGRFTISRDNAKNTVYLQMNSLKPEDTAVYYCAAVQYRYSTRWARRAYDYWGQGTQVTVSS | high polyreactivity |
| QVQLVESGGGLVQAGGSLRLSCAASGYTFVTNAMGWYRQAPGKERELVAAITTVGSTNYADSVKGRFTISRDNAKNTVYLQMNSLKPEDTAVYYCNANWYEWYDWGQGTQVTVSS | low polyreactivity |
| QVQLVESGVGLVQAGGSLRLSCAASGSIFYVYAMGWYRQAPGKERELVAAITNYADSVKGRFTISRDNAKNTVYLQMNSLKPEDTAVYYCAADWWRVEMDYWGQGTQVTVSS | low polyreactivity |
| QVQLVESGGGLVQAGGSLRLSCAASGSIFVWYAMGWYRQAPGKERELVAAISSSGDNTYYADSVKGRFTISRDNAKNTVYLQMNSLKPEDTAVYYCAAKSYWGQGTQVTVSS | high polyreactivity |
| QVQLVESGGGLVQAGGILRLSSAASGFTFGYYAMGWYRQAPGTQRELVAAINWSGGRTYYADSVKGRFTISRDNAKNTVYLQMNSLKPEDTAVYYCAADPKKGRQMYYWGQGTQVTVSS | high polyreactivity |
| QFQLVESGGGLVQAGGSLRLSCAASGSTFRIYTMGWYRQAPGKHRELVAGISSSGNTNYADSVKGRFTISRDNAKNTVYLQMYSLKPEDTAVYYCAAVQPAWGNGYWGQGTQVTVSS | high polyreactivity |
| QVQLVESGGGLVQAGGSLRLSCAASGIIFDTNAIGWYSQAPGKERELVATITQRGGTTYYADSVKGRFTISRDNAKNTVYLQMNSLKPEDTAVYYCNAGPVRLPYDSWGQGSQVTVSS | low polyreactivity |
| QVQLVESGGGLVQAGGSHRLSCAASGYIFRYSTMGWYRQAPGKERELVAVITRGGSTYYADSVKGRFTISRDNAKNTVYLQMTSLNPEDTAVYYCAAVRTKVWRGPEMDYWGQCTQVTVSS | high polyreactivity |
| QVQLVESGGGLVQAGGSLRLSCASTGFTFYRYAMGWYRQARGKERELVAAITRSGSRTYYADSVKGRFTISRDNAKNTVYLQMNSLKPEDTAVYYCNAPRPASTDRRRYNYWGQGTQVTVSS | high polyreactivity |
| QVQLVESGGGLVQAGGSLRLSCAASGSTFPSNAMGWYRQAPGKERELVAAISSGGRTYYADSVKGRFTISRDNAKNTVYLQMNSLKPEDTAVYYCAADTDRRSPFDYWGQGTQVTVSS | high polyreactivity |
| QVQLVESGGGLVEAGGTLRLSCAASGSIFPINAMGWYRQAPGKQWELVAAITVSDGRTYYADSVKGRFTISRDTAKNTVYLQMNSLKPEDTAVYYCAKSSHAREYYYWGQGNQVTVSS | low polyreactivity |
| QVQLVESGGGLVQAGGSLRLSCAASGFISKYYAMGWSRQAPGKERELVASISRDGSTSYADSVKGRFTISRDNAKNTVYLQMNSLKPEDTAVYYCAAPRRWGDKYSFGYWGQGTQVTVSS | high polyreactivity |
| QVQLVESGGGLVQAGGSLRLSCAASGFIFYLNAMGWSRKAPGKERELVAAISSSGGRTYYADSVKGRFTISRDNAKNTVYFQMNSLKAEDTAVYYCNAVTLYRSRTDGYWGQGTQVTVSS | high polyreactivity |
| QVQLVESGGGLVQAGGSLRLSCAASGRTMAVYAMGWDRQAPGKEREVVAAISWSGGTTYYADSVKGRFTISRDNAKNTVYLQMNSLKAEDTAVYYCAADSYTEVDYWGQGTQVTVSS | low polyreactivity |
